# System: SK-MEL-2
# protocol text: NCI tumour cell line growth inhibition, 48 h
Activity calls are given as the source filed them. Cut-off read from the data, not from the text of the source: active = GI50 up to about 1.1 µM and inactive = higher. *1 amine or outer side, *2 acyl side, *3 side chain or, on linkers, in order; H or OH if unused. Where a SMILES comes first, the peptide text is derived from it. Bridges are numbered along the chain shown (N, C = ends). Roman numbers before positions name the chains, in order. [ ]: non-standard residue; d: D form. Actinocin(1to9) = Cc1c2oc3c(C)ccc(C(=O)[*:2])c3nc-2c(C(=O)[*:1])c(N)c1=O; NMeV = CN[CH](C(=O)O)C(C)C; Sar = CNCC(=O)O
Recorded GI50 by entry

Would you please look over these solved cases?
[[record]]
molecule = "NC(=O)c1ncn2c1NCC1OC2C(O)C1O (configuration not stated)"
target_system = "SK-MEL-2"
recorded_endpoint = "GI50"
reported_result = "> 100 µM (inactive)"

[[record]]
molecule = "CN1C(=O)C(=Cc2ccc(Br)cc2)C(=O)N(C)C1=O"
target_system = "SK-MEL-2"
recorded_endpoint = "GI50"
reported_result = "> 100 µM (inactive)"

[[record]]
molecule = "C=C1CCC(OC(C)=O)C2(C)C(OC(C)=O)CC3OC3(C)C2C(OC(C)=O)C2C(C)C(=O)OC2C1Cl (configuration not stated)"
target_system = "SK-MEL-2"
recorded_endpoint = "GI50"
reported_result = "> 100 µM (inactive)"

[[record]]
molecule = "COc1ccc2c(c1)c1c(C)c3cnccc3c(C)c1n2CCCN"
target_system = "SK-MEL-2"
recorded_endpoint = "GI50"
reported_result = "0.401 µM (active)"

[[record]]
molecule = "CN(C)Cc1cc(C(C)(C)C)cc(CNC2CCCCC2)c1O"
target_system = "SK-MEL-2"
recorded_endpoint = "GI50"
reported_result = "> 100 µM (inactive)"

[[record]]
molecule = "Nc1ccc2c3c1cccc3c(=O)n1c3ccc(Cc4ccc5c(c4)nc4c6ccc(N)c7cccc(c(=O)n54)c76)cc3nc21"
target_system = "SK-MEL-2"
recorded_endpoint = "GI50"
reported_result = "> 100 µM (inactive)"

[[record]]
molecule = "C[C@H]1C[C@H](C)c2ccccc2N(C)/C1=N\\c1ccccc1"
target_system = "SK-MEL-2"
recorded_endpoint = "GI50"
reported_result = "20.5 µM (inactive)"

[[record]]
molecule = "[N-]=[N+]=NC(CBr)c1cn([C@H]2C[C@H](O)[C@@H](CO)O2)c(=O)[nH]c1=O (some centres not stated)"
target_system = "SK-MEL-2"
recorded_endpoint = "GI50"
reported_result = "> 100 µM (inactive)"


GI50 reported for this molecule CCNC(=O)CCN(C(=O)O)S(=O)(=O)c1ccc(NC(=O)c2ccccc2)cc1 : > 100 µM (inactive)

GI50 reported for this molecule CC(=O)OCC1OC(n2c(C#N)cc(=O)[nH]c2=O)CC1OC(C)=O (configuration not stated) : > 100 µM (inactive)

GI50 reported for this molecule Cc1cn(CCCCCCOC(=O)NC(CCCNC(=N)N)C(=O)O)c(=O)[nH]c1=O (configuration not stated) : > 100 µM (inactive)

GI50 reported for this molecule C[C@]12C/C(=C/O)C(=O)C(O)=C1CC[C@@H]1C2CC[C@@]2(C)C1CC[C@@H]2O (some centres not stated) : 19.9 µM (inactive)

GI50 reported for this molecule CCC(C)C1NC(=O)C(NC(=O)c2c3nc4c(C(=O)NC5C(=O)NC(C(C)C)C(=O)N6CCCC6C(=O)N(C)CC(=O)N(C)C(C(C)C)C(=O)OC5C)ccc(C)c4oc-3c(C)c(=O)c2N)C(C)OC(=O)C(C(C)C)N(C)C(=O)CN(C)C(=O)C2CCCN2C1=O (configuration not stated) (I: TIP[Sar][NMeV] / II: TVP[Sar][NMeV]; ester I:1-I:C, II:1-II:C; linker I:N-II:N via Actinocin(1to9); configuration not given here) : 0.00172 µM (active)

GI50 reported for this molecule CC(C)C[C@H](NC(=O)[C@H](Cc1ccccc1)NC(=O)CCc1ccccc1)B(O)O : < 0.01 µM (active)

GI50 reported for this molecule CC(O)C1(CNc2cc(Cl)nc(N)n2)CCCCC1 (configuration not stated) : > 100 µM (inactive)

GI50 reported for this molecule Cc1cc(C)c2c(O)cc(-c3ccc(F)cc3)nc2n1 : 38.7 µM (inactive)

GI50 reported for this molecule COC(=O)c1cc(C)ccc1/C=C1\Cc2cc(C)c(C)cc2C1=O : 60.3 µM (inactive)
